Molecular target: influenza A/WSN virus transcriptase (Influenza A virus, UniProt P03427+P03430+P15659)
Assay: biochemical
Conditions: read-out: IC50, concentration required to achieve 50% inhibition of influenza A/WSN virus transcriptase activity
reported endpoint: pIC50
Reminder that pIC50 is minus the log10 of a molar concentration.

[ask] Give the measured pIC50 of COc1cc(C(=O)O)ccc1N1N=C(C(C)=O)C(=C2C(=O)N(c3ccc(C(=O)O)cc3OC)N=C2C(C)=O)C1=O .
[reply] 5.92

[ask] Give the measured pIC50 of CC(=O)C1=NN(c2cc(C(=O)O)ccc2C)C(=O)C1=C1C(=O)N(c2cc(C(=O)O)ccc2C)N=C1C(C)=O .
[reply] 6.46

[ask] Give the measured pIC50 of CC(=O)C1=NN(c2ccc(C(=O)O)cc2C)C(=O)C1=C1C(=O)N(c2ccc(C(=O)O)cc2C)N=C1C(C)=O .
[reply] 6.70

[ask] Give the measured pIC50 of CC(=O)C1=NN(c2ccc(C(=O)O)cc2)C(=O)C1=C1C(=O)N(c2ccc(C(=O)O)cc2)N=C1C(C)=O .
[reply] 6.30

[ask] Give the measured pIC50 of CC(=O)C1=NN(c2ccc(Cl)c(C(=O)O)c2)C(=O)C1=C1C(=O)N(c2ccc(Cl)c(C(=O)O)c2)N=C1C(C)=O .
[reply] 6.60

[ask] Give the measured pIC50 of CC(=O)C1=NN(c2cccc(C(=O)O)c2)C(=O)C1=C1C(=O)N(c2cccc(C(=O)O)c2)N=C1C(C)=O .
[reply] 6.46

[ask] Give the measured pIC50 of CC(=O)C1=NN(c2ccc(C(=O)O)c(Cl)c2)C(=O)C1=C1C(=O)N(c2ccc(C(=O)O)c(Cl)c2)N=C1C(C)=O .
[reply] 6.10
